Property: pEC50; scope: individual compounds
Target: human PPAR alpha (Homo sapiens, UniProt Q07869)
Sequence (Q07869 239-466 limits assumed): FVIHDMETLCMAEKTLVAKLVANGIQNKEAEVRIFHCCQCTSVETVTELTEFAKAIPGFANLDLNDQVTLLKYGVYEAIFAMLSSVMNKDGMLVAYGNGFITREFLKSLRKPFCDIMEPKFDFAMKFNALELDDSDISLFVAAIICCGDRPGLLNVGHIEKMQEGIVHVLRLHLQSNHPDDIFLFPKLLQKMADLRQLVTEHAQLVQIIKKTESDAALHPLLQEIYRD
Assay: Transient transfection (transactivation) assay in CV-1 cells, hPPAR alpha
Settings: PPAR transactivation activity, GAL4 chimera, concentration giving 50% of maximum activity, read-out: human αEC50
Give only the number. pEC50 is defined as minus log10 of concentration in molar units.

These solved cases illustrate the format of a correct answer.
Cc1cc(OCc2nc(-c3ccc(C(F)(F)F)cc3)no2)ccc1OC(C)(C)C(=O)O
7.44
CC(C)c1ccc(-c2noc(COc3ccc(OC(C)(C)C(=O)O)cc3)n2)cc1
7.11
Cc1cc(OCc2nc(-c3ccc(C(C)(C)C)cc3)no2)ccc1OC(C)(C)C(=O)O
7.62

Item under review: CC(C)(Oc1ccc(OCc2nc(-c3ccc(C(F)(F)F)cc3)no2)cc1)C(=O)O . Reported pEC50?
7.01

// repeat for CC(C)c1ccc(-c2nc(COc3ccc(OC(C)(C)C(=O)O)cc3)no2)cc1 and report
7.54

Moving on to Cc1cc(OCc2nc(-c3ccc(C(C)C)cc3)no2)ccc1OC(C)(C)C(=O)O
7.23

Entry CC(C)(Oc1ccc(OCc2noc(-c3ccc(C(C)(C)C)cc3)n2)cc1)C(=O)O please
7.40

Please answer likewise for CC(C)(Oc1ccc(OCc2nc(-c3ccc(C(C)(C)C)cc3)no2)cc1)C(=O)O
7.04
